target: PDGFRβ (Homo sapiens (Human), UniProt P09619); experiment: PDGFRβ kinase activity test (Caliper mobility shift assay); assay type: biochemical
Sequence (P09619 33-1106): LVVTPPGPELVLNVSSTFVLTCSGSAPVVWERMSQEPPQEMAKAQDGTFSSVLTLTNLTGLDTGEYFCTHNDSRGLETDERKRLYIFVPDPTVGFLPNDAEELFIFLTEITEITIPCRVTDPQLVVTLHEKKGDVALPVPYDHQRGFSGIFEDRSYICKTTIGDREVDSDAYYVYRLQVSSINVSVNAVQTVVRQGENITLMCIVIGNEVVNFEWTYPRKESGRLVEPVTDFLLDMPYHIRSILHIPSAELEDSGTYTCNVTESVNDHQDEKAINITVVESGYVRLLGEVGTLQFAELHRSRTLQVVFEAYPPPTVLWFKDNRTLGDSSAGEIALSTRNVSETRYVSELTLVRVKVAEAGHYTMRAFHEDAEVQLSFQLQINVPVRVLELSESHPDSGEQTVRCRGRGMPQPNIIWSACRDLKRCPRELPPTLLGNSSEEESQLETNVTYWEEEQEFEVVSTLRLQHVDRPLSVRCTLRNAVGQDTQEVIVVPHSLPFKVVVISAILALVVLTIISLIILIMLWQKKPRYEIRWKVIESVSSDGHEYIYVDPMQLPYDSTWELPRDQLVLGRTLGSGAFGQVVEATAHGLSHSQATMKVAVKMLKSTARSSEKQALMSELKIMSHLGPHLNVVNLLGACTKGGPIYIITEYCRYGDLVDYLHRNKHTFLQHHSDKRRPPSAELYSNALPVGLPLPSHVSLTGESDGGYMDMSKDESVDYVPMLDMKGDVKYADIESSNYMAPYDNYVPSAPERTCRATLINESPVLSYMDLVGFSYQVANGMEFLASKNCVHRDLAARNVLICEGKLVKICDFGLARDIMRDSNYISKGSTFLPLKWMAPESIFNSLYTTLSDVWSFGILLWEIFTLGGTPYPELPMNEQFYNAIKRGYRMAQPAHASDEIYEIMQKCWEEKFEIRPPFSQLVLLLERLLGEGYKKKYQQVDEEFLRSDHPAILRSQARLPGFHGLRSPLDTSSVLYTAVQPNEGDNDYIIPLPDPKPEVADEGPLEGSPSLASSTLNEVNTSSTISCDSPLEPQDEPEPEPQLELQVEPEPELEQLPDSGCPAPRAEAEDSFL
pIC50: −log10 of the molar value.
Please note: criterion met applies when pIC50 is 6 or greater, and criterion not met applies otherwise.

Known results for molecules:
{"columns": ["molecule", "answerLabel"],
 "data": [
  ["Cn1cc(-c2cc(Oc3ccc(NC(=O)N4CCC5(CCCC(F)(F)C5)C4=O)nc3)ccn2)cn1 (stereo not drawn) [Compound 18]", "criterion met"],
  ["Cc1nc(NC(=O)N2CCC3(CCC3)C2=O)ccc1Oc1ccnc(-c2cnn(C)c2)c1 [Compound 15]", "criterion not met"],
  ["Cn1cc(-c2cc(Oc3ccc(NC(=O)N4CCC5(CCCC5)C4=O)nc3)ccn2)cn1 [Compound 3]", "criterion not met"],
  ["Cn1cc(-c2cc(Oc3ccc(NC(=O)N4CCC5(CCCCC5)C4=O)nc3)ccn2)cn1 [Compound 2]", "criterion not met"]
]}

Proceed to the following item.
Please check the record Cn1cc(-c2cc(Oc3ccc(NC(=O)N4CCC5(CCC5)C4=O)nc3)ccn2)cn1 [Compound 1] and state if its pIC50 is at or above 6. criterion not met
